# Test system: SW-620 colon
# experiment_summary: NCI-60 one-dose screen, 48 h
# applied_conditions: 10 µM unless noted
This is part of a sample that, as a whole, favours compounds with a hit. Of some 83,000 tested, about 20% had one in any assay. Activity calls are given as the source filed them. How the source made its calls: active means growth percent below 10; inactive means the rest.
Field 'call' accepts active, inactive

Reference set, count: 3
cpd_smiles | target_or_test_system | label_class
c1ccc(-c2n(Cc3ccc4ccccc4c3)c3c4ccccc4c4ccccc4c3[n+]2Cc2ccc3ccccc3c2)cc1 | SW-620 colon | active
Cc1[nH]nc2ccc(-c3nc4cnc(N5CCN(C)CC5)cn4c3Nc3ccc(F)cc3Br)cc12 | SW-620 colon | inactive
O=C1C[C@@H](c2ccccc2)Oc2c(Cc3ccccc3O)c(O)c(Cc3cc(Cc4cc(Cc5ccccc5O)ccc4O)ccc3O)c(O)c21 | SW-620 colon | inactive

Prompt line: In this assay, the call recorded for `N#C/C(=C\c1ccc2ccccc2c1)C(=O)Nc1sc2c(c1C#N)CCC2` was what?
Response line: inactive

Data origin, for the record: PubChem BioAssay (NCI)
